IC50 data for Glycogen synthase kinase-3 beta (Homo sapiens) follow.
measured-quantity: IC50 (nM)

Worked cases, IC50 given:
Cc1nn(-c2ccccc2)c2c1c1c(c3cccn32)C(=O)NC1=O    690
Cc1ccccc1-n1nc(C)c2c3c(c4cccn4c21)C(=O)NC3=O    440
Cc1nn(-c2ccccc2Cl)c2c1c1c(c3cccn32)C(=O)NC1=O    940

P. Cc1ccccc1-n1ncc2c3c(c4cccn4c21)C(=O)NC3=O
Q. O=C1NC(=O)c2c1c1cnn(-c3ccccc3Cl)c1n1cccc21
Name the one with the greater IC50 value, either P or Q as given. Mark your answer with the label of the selected entry. P
(P: 1210 nM, Q: 810 nM)

###

test: Aqueous solubility of the compound at pH 7.4; assay type: physicochemical
measured-quantity: solubility (µM)
Report the value in µM with no unit label.

Bench note: what solubility did Cc1nn(-c2ccc(Cl)cc2Cl)c2c1c1c(c3cccn32)C(=O)NC1=O show? 3.1
